System: E.coli 1113
Protocol description: Vitek 2 drug sensitivity test; also: key: S: Drug sensitive; R: Drug resistance
Format: cell-based, Escherichia coli
Readout: Sensibility

*Q* Consider the molecule CN(C)c1cc(NC(=O)CNC(C)(C)C)c(O)c2c1C[C@H]1C[C@H]3[C@H](N(C)C)C(O)=C(C(N)=O)C(=O)[C@@]3(O)C(O)=C1C2=O [Tigecycline, tigecycline] . State its measured Sensibility.
*A* S

*Q* Look up and state reported Sensibility for C[C@@H](O)[C@H]1C(=O)N2C(C(=O)O)=C(SCCN=CN)C[C@H]12 [Imipenem, imipenem]
*A* R

*Q* Identify Sensibility associated with the molecule CO/N=C(\C(=O)N[C@@H]1C(=O)N2C(C(=O)[O-])=C(C[N+]3(C)CCCC3)CS[C@H]12)c1csc(N)n1 [Cefepime, cefepime]
*A* R

*Q* Look up Sensibility of C[C@H]1COc2c(N3CCN(C)CC3)c(F)cc3c(=O)c(C(=O)O)cn1c23 [Levofloxacin, levofloxacin] and report it.
*A* R

---

System: alveolar lavage fluid sample 0203, K. pneumoniae
Protocol description: FaAST (FDAA) susceptibility test of patient alveolar lavage fluid
Format: cell-based, Klebsiella pneumoniae
Test conditions: unit assumed
Readout: FaAST (MIC) (µg/mL)
Respond numerically; units are µg/mL and should not be typed.

*Q* GET FaAST (MIC) | system: alveolar lavage fluid sample 0203, K. pneumoniae | item: `CN(C)c1cc(NC(=O)CNC(C)(C)C)c(O)c2c1C[C@H]1C[C@H]3[C@H](N(C)C)C(O)=C(C(N)=O)C(=O)[C@@]3(O)C(O)=C1C2=O`
*A* 0.125

*Q* // output FaAST (MIC); input `CC(=O)NC[C@H]1CN(c2ccc(N3CCOCC3)c(F)c2)C(=O)O1` ; system alveolar lavage fluid sample 0203, K. pneumoniae
*A* 16

Others:
*Q* Look up and report FaAST (MIC), with alveolar lavage fluid sample 0203, K. pneumoniae as system, for `C[C@H]1COc2c(N3CCN(C)CC3)c(F)cc3c(=O)c(C(=O)O)cn1c23`
*A* 0.25

*Q* Enter FaAST (MIC) (test system alveolar lavage fluid sample 0203, K. pneumoniae) for `C[C@@H](O)[C@H]1C(=O)N2C(C(=O)O)=C(S[C@@H]3CN[C@H](C(=O)N(C)C)C3)[C@H](C)[C@H]12`
*A* 0.25

---

Reported FaAST (MIC) by item:
Test system: Ec ATCC 25922
Protocol description: FaAST (FDAA metabolic labeling)
Assay type: cell-based, Escherichia coli
Test conditions: unit assumed
Experimental: The specific experimental steps are as follows: • 1. Take the colony to be tested that has been cultured overnight on the plate and fully mix it in normal saline to make a uniform bacterial solution. Dilute it into CAMHB medium to make a bacterial solution with OD600=0.05. • 2. […] After dilution with 200 μl PBS solution, the fluorescence intensity of each sample was detected by flow cytometry. […]
Answer with a number only, understood to be in µg/mL.

*Q* # return FaAST (MIC) of `CO/N=C(\C(=O)N[C@@H]1C(=O)N2C(C(=O)O)=C(COC(N)=O)CS[C@H]12)c1ccco1` (system: Ec ATCC 25922)
*A* 8

--- query ---
*Q* Look up and report measured FaAST (MIC) (Ec ATCC 25922) for the following compound: `C[C@@H](O)[C@H]1C(=O)N2C(C(=O)O)=C(SCCN=CN)C[C@H]12`
*A* 1
